- System tested: HIV Env, isolate ZM233M.PB6 (HIV)
- Assay: cell-based or functional assay
Quantity: IC80 (µg/ml) with constrains (µg/mL)
Respond numerically; units are µg/mL and should not be typed.

Query string: Entry PGDM1400 (antibody, V domains shown) VH: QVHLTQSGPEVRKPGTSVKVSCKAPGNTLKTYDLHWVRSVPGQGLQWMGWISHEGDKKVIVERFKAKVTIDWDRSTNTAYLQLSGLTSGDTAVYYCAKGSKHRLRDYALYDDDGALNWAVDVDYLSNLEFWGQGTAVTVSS VL: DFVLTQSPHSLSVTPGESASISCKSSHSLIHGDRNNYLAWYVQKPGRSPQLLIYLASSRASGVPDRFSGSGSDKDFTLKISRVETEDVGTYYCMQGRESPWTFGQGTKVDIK has what IC80 (µg/ml) with constrains?
Result string: 0.007

Query string: Same again, this time with ePGDM5 (antibody, V domains shown) VH: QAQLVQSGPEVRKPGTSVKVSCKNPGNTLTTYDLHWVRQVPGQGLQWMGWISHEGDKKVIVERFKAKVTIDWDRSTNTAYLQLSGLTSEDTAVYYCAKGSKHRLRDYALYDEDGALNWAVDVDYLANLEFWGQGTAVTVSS VL: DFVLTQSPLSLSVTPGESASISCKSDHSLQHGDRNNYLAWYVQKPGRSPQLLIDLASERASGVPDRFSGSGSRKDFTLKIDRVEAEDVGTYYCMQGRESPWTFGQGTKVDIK
Result string: 0.007

Query string: Same again, this time with ePGDM13 (antibody, V domains shown) VH: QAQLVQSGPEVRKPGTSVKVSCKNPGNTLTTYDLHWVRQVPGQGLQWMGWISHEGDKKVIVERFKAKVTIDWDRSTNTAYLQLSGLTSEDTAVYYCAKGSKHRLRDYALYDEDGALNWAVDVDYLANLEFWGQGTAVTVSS VL: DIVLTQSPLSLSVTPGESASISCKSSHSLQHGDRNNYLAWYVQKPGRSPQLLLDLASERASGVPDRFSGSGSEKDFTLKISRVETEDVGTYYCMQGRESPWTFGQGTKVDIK
Result string: 0.006

Query string: Same again, this time with ePGDM9 (antibody, V domains shown) VH: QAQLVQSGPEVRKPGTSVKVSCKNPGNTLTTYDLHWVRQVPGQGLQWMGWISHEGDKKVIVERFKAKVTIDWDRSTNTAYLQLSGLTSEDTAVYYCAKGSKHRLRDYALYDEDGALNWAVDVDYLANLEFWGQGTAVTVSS VL: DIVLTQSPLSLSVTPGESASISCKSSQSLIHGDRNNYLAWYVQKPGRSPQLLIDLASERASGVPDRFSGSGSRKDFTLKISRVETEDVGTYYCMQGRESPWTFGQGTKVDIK
Result string: 0.007

The origin of these recorded values is patent US20230134571A1.
